Where do the numbers come from? From paper PMC11458808.

# ASSAY COMMENT: Aqueous (kinetic) solubility by CAD
# Type: physicochemical
# CONDITION PARAMETERS: kinetic solubility measured by CAD
Threshold rule: solubility greater than or equal to 40 µM is fulfilled; below that, not fulfilled.

{"MOLECULE": "COc1ccc(S(=O)(=O)Nc2ccc(CN3CCN(C(=O)c4cccc(Cl)c4)CC3)cc2)cc1", "QUALITATIVE LABEL": "fulfilled"}
{"MOLECULE": "COc1ccc(S(=O)(=O)Nc2ncc(CN3CCN(C(=O)c4cccc(Cl)c4)CC3)nc2OC)cc1", "QUALITATIVE LABEL": "fulfilled"}
{"MOLECULE": "COc1ccc(S(=O)(=O)Nc2ccc(CN3CCN(C(=O)c4cccc(C)c4)CC3)cc2)cc1", "QUALITATIVE LABEL": "fulfilled"}

Next molecule, please.
Data request: Tell me whether solubility is at least 40 µM here: COc1ccc(S(=O)(=O)Nc2ccc(CN3CCN(C(=O)c4cc(C(F)(F)F)n[nH]4)CC3)cc2)cc1
Data returned: fulfilled

---

# ASSAY COMMENT: ChromLogD pH7.4 (chromatographic hydrophobicity index)
# Type: physicochemical
# CONDITION PARAMETERS: pH 7.4; CHIpH7.4 × 0.0857–2; read-out: ChromlogDpH7.4
// map chromatographic logD onto a label; ranges small value: < 4; mid value: ≥ 4 and < 5; large value: ≥ 5

Below, 4 compounds whose answers are already recorded.
{"COMPOUND": "COc1ccc(S(=O)(=O)Nc2ccc(CN3CCN(C(=O)C4CC(O)(C(F)(F)F)C4)CC3)cc2)cc1 (stereo not shown) [Compound 22]", "QUALITATIVE LABEL": "mid value"}
{"COMPOUND": "Cc1ccc(S(=O)(=O)Nc2ccc(CN3CCC(NC(=O)c4cccc(Cl)c4)CC3)cc2)cc1 [Compound 37]", "QUALITATIVE LABEL": "large value"}
{"COMPOUND": "O=C(c1cccc(Cl)c1)N1CCN(Cc2ccc(NS(=O)(=O)c3ccc4c(c3)OCO4)cc2)CC1 [Compound 6]", "QUALITATIVE LABEL": "large value"}
{"COMPOUND": "COc1ccc(S(=O)(=O)Nc2ccc(CN3CCN(C(=O)Cn4cccnc4=O)CC3)cc2)cc1 [Compound 18]", "QUALITATIVE LABEL": "small value"}

Data request: Assign a category based on measured chromatographic logD for COc1ccc(S(=O)(=O)Nc2ccc(CN3CCN(C(=O)c4ccccc4)CC3)cc2)cc1 [Compound 10] and give only the class name.
Data returned: mid value

Data request: Assign a category based on measured chromatographic logD for Cc1ccc(S(=O)(=O)Nc2ccc(CNC3CN(C(=O)c4cccc(Cl)c4)C3)cc2)cc1 [Compound 38] and give only the class name.
Data returned: mid value

Data request: Assign a category based on measured chromatographic logD for N#Cc1ccc(S(=O)(=O)Nc2ccc(CN3CCN(C(=O)c4cccc(Cl)c4)CC3)cc2)cc1 [Compound 5] and give only the class name.
Data returned: large value

Data request: Assign a category based on measured chromatographic logD for Cc1ccc(S(=O)(=O)Nc2ccc(CN3C[C@@H]4CN(C(=O)c5cccc(Cl)c5)C[C@@H]4C3)cc2)cc1 [Compound 35] and give only the class name.
Data returned: large value

Data request: Assign a category based on measured chromatographic logD for Cc1ccc(S(=O)(=O)Nc2ccc(CN3CCN(C(=O)c4cc5ccccc5[nH]4)CC3)cc2)cc1 [Compound 23] and give only the class name.
Data returned: large value

Data request: Assign a category based on measured chromatographic logD for COc1ccc(S(=O)(=O)Nc2ccc(CN3CCN(C(=O)C4CCCN(C)C4)CC3)cc2)cc1 (stereo not shown) [Compound 20] and give only the class name.
Data returned: small value

Data request: Assign a category based on measured chromatographic logD for Cc1ccc(S(=O)(=O)Nc2ccc(CN3CCN(C(=O)c4cccc(C#N)c4)CC3)cc2)cc1 [TCMDC-143497] and give only the class name.
Data returned: mid value

Data request: Assign a category based on measured chromatographic logD for Cc1ccc(S(=O)(=O)Nc2ccc(CN3CCN(C(=O)C4CCc5ccccc54)CC3)cc2)cc1 (stereo not shown) [Compound 24] and give only the class name.
Data returned: large value

Data request: Assign a category based on measured chromatographic logD for COc1ccc(S(=O)(=O)Nc2ccc(OC3CCN(C(=O)c4cccc(Cl)c4)CC3)cc2)cc1 [Compound 28] and give only the class name.
Data returned: large value

Data request: Assign a category based on measured chromatographic logD for COc1ccc(S(=O)(=O)Nc2ccc(CN3CCN(C(=O)c4cccc(Cl)c4)CC3)nc2)cc1 [Compound 44] and give only the class name.
Data returned: mid value

Data request: Assign a category based on measured chromatographic logD for COc1ccc(S(=O)(=O)Nc2ccc(CN3CCN(C(=O)C4CN(C(C)=O)C4)CC3)cc2)cc1 [Compound 21] and give only the class name.
Data returned: small value

Data request: Assign a category based on measured chromatographic logD for Cc1ccc(S(=O)(=O)Nc2ccc(CN(C)[C@H]3CCN(C(=O)c4cccc(Cl)c4)C3)cc2)cc1 [Compound 33] and give only the class name.
Data returned: large value

Data request: Assign a category based on measured chromatographic logD for COc1ccc(S(=O)(=O)Nc2nnc(CN3CCN(C(=O)c4cccc(Cl)c4)CC3)o2)cc1 [Compound 41] and give only the class name.
Data returned: small value

Data request: Assign a category based on measured chromatographic logD for COc1ccc(S(=O)(=O)Nc2ccc(CN3CCN(C(=O)c4ccnc(C)n4)CC3)cc2)cc1 [Compound 19] and give only the class name.
Data returned: small value

Data request: Assign a category based on measured chromatographic logD for COc1ccc(S(=O)(=O)Nc2ccc(CN3CCN(C(=O)c4cc(Cl)ccc4OC)CC3)cc2)cc1 [Compound 14] and give only the class name.
Data returned: large value

Data request: Assign a category based on measured chromatographic logD for Cc1ccc(S(=O)(=O)Nc2ccc(NC3CCN(C(=O)c4cccc(Cl)c4)CC3)cc2)cc1 [Compound 36] and give only the class name.
Data returned: large value

Data request: Assign a category based on measured chromatographic logD for O=C(c1cccc(Cl)c1)N1CCN(Cc2ccc(NS(=O)(=O)CC3CCCO3)cc2)CC1 (stereo not shown) [Compound 7] and give only the class name.
Data returned: mid value

Data request: Assign a category based on measured chromatographic logD for COc1ccc(S(=O)(=O)Nc2cnc(CN3CCN(C(=O)c4cccc(Cl)c4)CC3)cn2)cc1 [Compound 45] and give only the class name.
Data returned: small value

---

# ASSAY COMMENT: Intrinsic clearance in mouse liver microsomes
# Type: in vitro ADME
# CONDITION PARAMETERS: mouse liver microsomal intrinsic clearance
RECORDED ENDPOINT: Mouse CLi (mL/min/g)
Numbers only here, please. The scale is mL/min/g.

{"INPUT SMILES": "Cc1ccc(S(=O)(=O)Nc2ccc(CN3CCN(C(=O)c4cccc(C#N)c4)CC3)cc2)cc1", "UNIT SPEC": "mL/min/g", "QUANTITATIVE READOUT": 30}

Data request: Given COc1ccc(S(=O)(=O)Nc2ccc(Cn3cc4c(n3)CN(C(=O)c3cccc(Cl)c3)C4)cc2)cc1 , state its recorded Mouse CLi.
Data returned: 12

---

# ASSAY COMMENT: Intrinsic clearance in mouse liver microsomes
# Type: in vitro ADME
# CONDITION PARAMETERS: mouse liver microsomal intrinsic clearance
RECORDED ENDPOINT: Mouse CLi

Completed entries (count: 2):
{"MOLECULE": "O=C(c1cccc(Cl)c1)N1CCN(Cc2ccc(NS(=O)(=O)c3ccccc3)cc2)CC1 [Compound 3]", "Mouse CLi": ">50 mL/min/g"}
{"MOLECULE": "Cc1ccc(S(=O)(=O)Nc2ccc(CN3CCC(NC(=O)c4cccc(Cl)c4)CC3)cc2)cc1 [Compound 37]", "Mouse CLi": "37 mL/min/g"}

Data request: Given COc1ccc(S(=O)(=O)Nc2ccc(CCN3CCN(C(=O)c4cccc(Cl)c4)CC3)cc2)cc1 [Compound 40] , state its recorded Mouse CLi.
Data returned: >50 mL/min/g

Data request: Given COc1ccc(S(=O)(=O)Nc2ccc(CN3CCN(C(=O)c4ccnc(C)n4)CC3)cc2)cc1 [Compound 19] , state its recorded Mouse CLi.
Data returned: 12 mL/min/g

Data request: Given Cc1ccc(S(=O)(=O)Nc2ccc(CN3CCN(C(=O)C4CCc5ccccc54)CC3)cc2)cc1 (centres unmarked) [Compound 24] , state its recorded Mouse CLi.
Data returned: >50 mL/min/g

---

# ASSAY COMMENT: Aqueous (kinetic) solubility by CAD
# Assay type: physicochemical
# CONDITION PARAMETERS: kinetic solubility measured by CAD
Threshold rule: solubility greater than or equal to 70 µM is Condition met; below that, Condition not met.

{"MOLECULE": "COc1ccc(S(=O)(=O)Nc2ccc(CN3CCN(C(=O)c4cccc(F)c4)CC3)cc2)cc1", "QUALITATIVE LABEL": "Condition met"}

Data request: Tell me whether solubility is at least 70 µM here: COc1ccc(S(=O)(=O)Nc2ccc(CN3CCN(C(=O)c4ccc(C)c(Cl)c4)CC3)cc2)cc1
Data returned: Condition not met

Data request: Tell me whether solubility is at least 70 µM here: O=C(c1cccc(Cl)c1)N1CCN(Cc2ccc(N3CCCCS3(=O)=O)cc2)CC1
Data returned: Condition met
